// values below are pIC50; system is acetylcholinesterase of human erythrocyte origin (Homo sapiens, UniProt P22303)
Sequence (P22303 32-617 isoform P22303-2 limits assumed): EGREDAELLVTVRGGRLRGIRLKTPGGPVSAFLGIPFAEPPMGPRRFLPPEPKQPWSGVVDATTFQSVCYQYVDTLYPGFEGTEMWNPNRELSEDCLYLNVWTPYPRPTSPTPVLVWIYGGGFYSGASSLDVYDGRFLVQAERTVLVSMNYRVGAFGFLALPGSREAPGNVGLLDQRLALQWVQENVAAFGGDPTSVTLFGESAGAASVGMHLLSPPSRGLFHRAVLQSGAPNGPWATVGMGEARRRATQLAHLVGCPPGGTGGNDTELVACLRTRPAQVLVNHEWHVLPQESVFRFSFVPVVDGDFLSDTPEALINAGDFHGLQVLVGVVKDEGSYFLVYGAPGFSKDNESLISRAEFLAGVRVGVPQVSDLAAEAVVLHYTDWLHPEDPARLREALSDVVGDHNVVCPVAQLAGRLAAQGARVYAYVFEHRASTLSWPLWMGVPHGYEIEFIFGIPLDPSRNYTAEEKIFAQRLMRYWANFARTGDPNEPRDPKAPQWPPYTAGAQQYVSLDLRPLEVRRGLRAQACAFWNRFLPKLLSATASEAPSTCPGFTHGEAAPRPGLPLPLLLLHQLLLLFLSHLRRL
Remember, pIC50 is on a log scale: it is -log10 of the molar concentration.

Answered cases to consult:
Lookup: Look at this compound and give its reported pIC50. O=C(CCC1CCN(Cc2ccccc2O)CC1)c1cc2c3c(c1)CCN3C(=O)CC2
Found: 8.28

Lookup: Next compound up: O=C(CCC1CCN(Cc2cccc(F)c2)CC1)c1cc2c3c(c1)CCN3C(=O)CC2 [Reference Example 15]
Found: 8.36

Others:
Lookup: Look at this compound and give its reported pIC50. O=C(CCC1CCN(Cc2ccccc2)CC1)c1cc2c3c(c1)CCN3C(=O)CC2 [Reference Example 17]
Found: 8.11

Lookup: Next compound up: O=C(CCC1CCN(Cc2cccc([N+](=O)[O-])c2)CC1)c1cc2c3c(c1)CCN3C(=O)CC2
Found: 8.09

Lookup: Next compound up: O=C(CCC1CCN(Cc2ccccc2)CC1)c1cc2c3c(c1)CC(=O)N3CCC2
Found: 7.96

Lookup: Next compound up: N#Cc1cccc(CN2CCC(CCC(=O)c3cc4c5c(c3)CCN5C(=O)CC4)CC2)c1 [Reference Example 1]
Found: 7.87

Lookup: Next compound up: O=C(CCC1CCN(Cc2cccc(Cl)c2)CC1)c1cc2c3c(c1)CCN3C(=O)CC2
Found: 7.96

Lookup: Next compound up: O=C(CCC1CCN(Cc2ccccc2Cl)CC1)c1cc2c3c(c1)CCN3C(=O)CC2
Found: 8.00
